test: Impact of fragrance ingredients on scalp malodour counteractancy of 80 fragrance compositions (Example 2 protocol, statistical presence); conditions: Table 3; series of 80 fragrance compositions
REPORTED_METRIC: Impact on scalp MOC of fragrance composition

COMPOUND: COc1ccc(C=O)cc1
VALUE_MEASURED: Positive
--
COMPOUND: CCCCCCC(=O)OCC [ethyl heptanoate]
VALUE_MEASURED: Positive
--
COMPOUND: CC(C)C1CCC(CO)CC1 (stereo not drawn)
VALUE_MEASURED: Positive
